The origin of these recorded values is patent US8853203B2.

Target Or Test System: UniProtKB P41594
Sequence (P41594 other isoform, or with tags, fused parts or gaps): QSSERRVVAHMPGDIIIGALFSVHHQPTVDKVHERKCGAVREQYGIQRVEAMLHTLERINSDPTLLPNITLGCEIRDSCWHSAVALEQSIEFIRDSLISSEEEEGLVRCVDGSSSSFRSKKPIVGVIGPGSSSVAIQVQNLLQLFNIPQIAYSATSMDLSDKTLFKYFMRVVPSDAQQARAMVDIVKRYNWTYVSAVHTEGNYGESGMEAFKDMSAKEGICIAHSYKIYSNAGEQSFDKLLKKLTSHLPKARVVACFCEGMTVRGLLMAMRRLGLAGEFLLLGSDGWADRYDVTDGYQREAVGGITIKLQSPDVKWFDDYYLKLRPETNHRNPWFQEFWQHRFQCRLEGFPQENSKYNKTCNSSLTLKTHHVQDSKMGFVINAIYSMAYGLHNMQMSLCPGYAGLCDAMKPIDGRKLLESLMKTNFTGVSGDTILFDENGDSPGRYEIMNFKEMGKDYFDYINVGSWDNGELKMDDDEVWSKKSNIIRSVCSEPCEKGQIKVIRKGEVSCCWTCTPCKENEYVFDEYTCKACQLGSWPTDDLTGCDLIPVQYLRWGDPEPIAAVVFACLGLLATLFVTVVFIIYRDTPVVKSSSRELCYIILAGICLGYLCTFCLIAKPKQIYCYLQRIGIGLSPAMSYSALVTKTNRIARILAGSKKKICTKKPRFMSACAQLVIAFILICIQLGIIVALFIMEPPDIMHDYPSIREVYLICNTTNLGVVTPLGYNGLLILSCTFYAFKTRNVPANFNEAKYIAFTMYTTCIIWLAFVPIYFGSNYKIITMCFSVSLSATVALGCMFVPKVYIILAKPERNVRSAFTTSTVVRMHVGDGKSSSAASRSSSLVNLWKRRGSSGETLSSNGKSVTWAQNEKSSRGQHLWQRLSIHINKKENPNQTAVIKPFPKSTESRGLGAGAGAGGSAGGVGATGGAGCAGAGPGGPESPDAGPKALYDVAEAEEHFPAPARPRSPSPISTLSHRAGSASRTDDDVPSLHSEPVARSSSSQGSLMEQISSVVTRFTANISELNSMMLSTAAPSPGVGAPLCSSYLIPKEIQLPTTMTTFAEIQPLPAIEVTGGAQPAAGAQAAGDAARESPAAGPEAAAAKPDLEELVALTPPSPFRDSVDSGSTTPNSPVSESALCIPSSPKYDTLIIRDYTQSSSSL
Procedure Details: inhibition of glutamate-induced elevation of intracellular calcium in L(tk-) cells expressing human mGluR5a
Format: cell-based
Condition Parameters: glutamate-induced intracellular calcium elevation, L(tk-) cells expressing human mGluR5a; read-out: mGluR5 IC50
Please note: IC50 exactly at 40 nM is label 0. Only values below 40 nM get label 1.

Would you please look over these solved cases?
INSERT INTO assay_data (compound, cat) VALUES
  ('O=C1CN=C(n2cnc(C3CC3)n2)C=C2c3cccc(C4CC4)c3CCN12 [Example 123c]', 'label 1'),
  ('COCc1cn(C2=NCC(=O)N3CCc4c(C5CC5)ccc(F)c4C3=C2)cn1 [Example 99i]', 'label 1'),
  ('COc1cc(C2=NCC(=O)N3CCc4c(cccc4-c4ccncc4F)C3=C2)ccn1 [Example 54]', 'label 1'),
  ('O=C1CN=C(c2ccoc2)C=C2c3cccc(-c4ccncc4)c3CCN12 [Example 51]', 'label 1'),
  ('O=C1CN=C(n2cnc(C3CCC3)n2)C=C2c3cccc(-c4ccc(F)nc4)c3CCN12 [Example 99h]', 'label 1');

In the record for COc1cccc(C2=NCC(=O)N3CCc4c(CN(C)C)cccc4C3=C2)c1 [Example 43] , is IC50 less than 40 nM?
label 0

Follow-up item: Cn1cnc(C2=NCC(=O)N3CCc4c(cccc4-c4ccncc4)C3=C2)c1 [Example 55]
label 0

Same for O=C1CN=C(n2cnc(C3CC3)c2)C=C2c3cccc(-c4cncc(F)n4)c3CCN12 [Example 141]
label 1

Subsequent entry: COc1cccc(C2=NCC(=O)N3CCc4c(Br)cccc4C3=C2)c1 [Example 20]
label 0

Also, O=C1CN=C(n2cnc(C3CC3)c2)C=C2c3cccc(-c4cnco4)c3CCN12 [Example 109] please.
label 1

And COC(=O)c1cccc2c1CCN1C(=O)CN=C(n3cnc(C4CC4)c3)C=C21 [Example 132] ?
label 0

# iterate: COCCOCc1cccc2c1CCN1C(=O)CN=C(c3cccc(OC)c3)C=C21 [Example 44]
label 0

Note, next up: O=C1CN=C(n2cnc(C3CC3)c2)C=C2c3cccc(-c4cnccn4)c3CCN12 [Example 88f]
label 0

Ok, now O=C1CN=C(n2cnc(COC(F)(F)F)c2)C=C2c3cccc(C4CC4)c3CCN12 [Example 131]
label 0

Also check Cc1cn(C2=NCC(=O)N3CCc4c(cccc4-c4cncnc4)C3=C2)cn1 [Example 78]
label 0

How about this compound: Cc1ncn(C2=NCC(=O)N3CCc4c(ccc(F)c4-c4ccc(F)nc4)C3=C2)n1 [Example 99o]
label 0

Cool, now COc1cccc(C2=NCC(=O)N3CCc4c(OC)cc(Cl)cc4C3=C2)c1 [Example 14]
label 0
